tested target: T1, HLA-B*07:02 (human)
T1 construct: Peptide-receptive MHC class I monomer made by UV cleavage of a UV-sensitive ligand
protocol description: UV ligand exchange ELISA; exchange yield grade
value kind: peptide exchange yield

Example cases with answers are listed next.
# binder, peptide exchange yield
data = [
    ("IPVSRPIL", "50 to 75%"),
    ("RPNGNSLFTSA", "50 to 75%"),
    ("LPLSMEAKI", "20 to 50%"),
    ("LPARFYQAL", "> 75%"),
    ("SPLSHHSQL", "20 to 50%"),
]

Field: peptide exchange yield. Fill in for each record below.
1. QPSPARAPAEL
2. KPKKAPKSPA
3. LPKVQSIQL
4. APINKAGSFL
5. NPRYPNYMF
6. KPMKSVLVV

20 to 50%
50 to 75%
20 to 50%
> 75%
50 to 75%
50 to 75%

Field: peptide exchange yield. Fill in for each record below.
1. YLNRHLHTW
2. QPRLFTMDL
3. SPFSFHHVL

1. 20 to 50%
2. 50 to 75%
3. 20 to 50%

Data credit: patent US20180291083A1
